Could you please report measured melting point for the items listed next?

CCCCNC(=O)NS(=O)(=O)c1ccc(CCNC(=O)N2Cc3ccc(Cl)cc3C2=O)cc1 ... 208 to 210 °C
O=C1CCS(=O)(=O)C1=NO ... 148 °C
Clc1ccc2c(c1)-c1[nH]ncc1CS2 ... 205 to 206 °C

Dear colleague, could you please provide melting point for the compounds listed below?
1. O=C(O)c1ccc(C(F)(F)F)c(N2CCOCC2)n1
2. Cc1nn(C)c(-n2ccc3cc(Cl)ccc32)c1CCS(=O)(=O)NC(=O)OCC1CC1

116 to 117 °C
170 °C

Dear colleague, could you please provide melting point for the compounds listed below?
1. Nc1ccc(C(=O)CCCCOCc2ccccc2)cc1
2. CCCCOCCOc1ccc(-c2ccc3c(c2)C=C(C(=O)Nc2ccc(CS(=O)c4nncn4C)cc2)CCN3CC(C)C)cc1 (configuration not stated)
3. CNc1nc(Cl)cc(NS(=O)(=O)c2ccc(Cl)cc2)n1
4. CC12CC3CC(C)(C1)CC(C(=O)NCc1cccs1)(C3)C2
5. CCOC(=O)c1cn(CCOC(C)=O)c2c(F)c(F)c(F)c(C)c2c1=O
6. O=C(NCc1ccccn1)Nc1cc(N2CC(c3cccs3)OC2=O)ccn1 (configuration not stated)
7. CC(C)(C)NC(=O)N(CCc1ccccc1)CC(O)C(Cc1ccccc1)NC(=O)C(CC(N)=O)NC(=O)c1ccc2ccccc2n1 (configuration not stated)

1. 72 °C
2. 87 to 89 °C
3. 196 to 198 °C
4. 101 to 103 °C
5. 192 to 193 °C
6. 187 to 188 °C
7. 139 to 140 °C

Dear colleague, could you please provide melting point for the compounds listed below?
1. O=C(O)c1cc(F)c(N(CCO)CCO)c(F)c1
2. Cc1c(Br)csc1C(=O)O
3. COc1ccc(C(=O)C(NCCc2ccc(OC)c(OC)c2Cl)SC)cc1 (configuration not stated)
4. CCOC(=O)C=Cc1c(N)nc(C)c(NC(C)=O)c1C
5. N#CC(C#N)=CN(N=C(C#N)C#N)c1cccc(Cl)c1

["146 to 150 °C", "188 to 189 °C", "75 to 78 °C", "204 to 205 °C", "113 to 115 °C"]

Each recorded value in this set is attributed to a melting point compilation (Tetko et al.; mined from patent text by program, amines drawn as free bases though some values may be those of a salt).
